# Tested on: C. elegans
# experiment summary: microbe, parasite or virus in culture
# test context: Caenorhabditis elegans, 0 h, read-out: Percentage of motility inhibition 0 h, Table S2, C. elegans SS assay, 110 μM, 0 h, averages of 4 data points
We'd kindly ask you to apply these inhibition at 110 µM classes: label 0 = under 5%, label 1 = from 5% up to 20%, label 2 = 20% and over

INSERT INTO assay_data (compound, category) VALUES
  ('O=C(O)c1cc(O)c(O)c(O)c1', 'label 2'),
  ('COc1ccc(-c2cc(=O)c3c(O)c(OC)c(O)cc3o2)cc1', 'label 0'),
  ('Cc1cc2cc3c(C)cc(=O)oc3c(C)c2o1', 'label 1'),
  ('COc1ccc2c(c1OC)CN(C)CCc1cc3c(cc1C(=O)C2)OCO3', 'label 1'),
  ('CC(C)(O)[C@H]1O[C@H]2CC[C@@]3(C)[C@@](O)(CC[C@H]4Cc5c([nH]c6ccccc56)[C@@]43C)C2=CC1=O', 'label 1'),
  ('CN(C)c1cc(NC(=O)CNC(C)(C)C)c(O)c2c1C[C@H]1C[C@H]3[C@H](N(C)C)C(O)=C(C(N)=O)C(=O)[C@@]3(O)C(O)=C1C2=O', 'label 2'),
  ('C/C=C1/C[C@@H](C)[C@@](C)(O)C(=O)OCC2=CC[N+]3([O-])CC[C@@H](OC1=O)[C@@H]23 (stereo partly shown) [Senecionine N‐oxide]', 'label 2'),
  ('COc1c(N2CCNC(C)C2)c(F)cc2c(=O)c(C(=O)O)cn(C3CC3)c12 (stereo not shown)', 'label 0'),
  ('[H]/N=C(\N/C(=N/[H])Nc1ccc(Cl)cc1)NC(C)C', 'label 2'),
  ('Cc1cccc(C)c1NC(=O)c1ccccc1C(=O)O [Ftaxilide]', 'label 1'),
  ('COc1ccc([C@@H](O)CNC(=O)/C=C/c2ccccc2)cc1 (racemic)', 'label 0'),
  ('CC(C)(O)/C=C/C(=O)[C@](C)(O)[C@H]1[C@H](O)C[C@@]2(C)[C@@H]3CC=C4[C@@H](C=C(O)C(=O)C4(C)C)[C@]3(C)C(=O)C[C@]12C', 'label 0'),
  ('CS(=O)(=O)c1ccc([C@@H](O)[C@@H](CF)NC(=O)C(Cl)Cl)cc1', 'label 2');
